Biological target: α-glucosidase (Saccharomyces cerevisiae, UniProt P53341)
Construct: purchased Sigma-Aldrich G0660
Sequence (P53341 whole entry): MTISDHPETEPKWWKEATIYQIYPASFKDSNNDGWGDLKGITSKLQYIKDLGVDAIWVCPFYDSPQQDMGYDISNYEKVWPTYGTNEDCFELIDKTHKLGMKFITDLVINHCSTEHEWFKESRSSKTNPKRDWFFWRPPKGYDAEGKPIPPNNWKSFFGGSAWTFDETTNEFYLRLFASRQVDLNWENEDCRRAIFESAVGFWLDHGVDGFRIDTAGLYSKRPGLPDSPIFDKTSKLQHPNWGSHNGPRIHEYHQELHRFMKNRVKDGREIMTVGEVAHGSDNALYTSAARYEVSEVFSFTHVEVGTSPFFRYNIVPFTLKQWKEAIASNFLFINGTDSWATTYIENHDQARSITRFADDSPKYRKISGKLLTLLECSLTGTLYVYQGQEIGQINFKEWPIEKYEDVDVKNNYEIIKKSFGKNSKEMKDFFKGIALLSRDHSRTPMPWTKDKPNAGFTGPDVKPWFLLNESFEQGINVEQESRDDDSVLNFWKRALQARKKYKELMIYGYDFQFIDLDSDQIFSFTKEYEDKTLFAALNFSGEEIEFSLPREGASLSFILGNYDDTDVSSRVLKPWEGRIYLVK
Test: biochemical
Type: biochemical
Settings: IC50 (α-glucosidase inhibitory activity), 37 °C, 30 minutes, pH 6.8
pIC50 overview
pIC50 is a log-scale quantity: -log10 of the concentration expressed in molar.

molecule	pIC50
COc1ccc(C=CC(=O)OC2C3C=COC(OC4OC(COC(c5ccccc5)(c5ccccc5)c5ccccc5)C(O)C(O)C4O)C3C3(COC(c4ccccc4)(c4ccccc4)c4ccccc4)OC23)cc1OC (stereo not drawn)	3.65

Record COc1ccc(C=CC(=O)OC2C3C=COC(OC4OC(CO)C(O)C(O)C4O)C3C3(CO)OC23)cc1 (stereo not drawn) [Compound 1, 6-O-[(E)-4-methoxycinnamoyl]catalpol] , field pIC50: 4.60

====

Molecular target: α-glucosidase (Saccharomyces cerevisiae)
Construct: purchased Sigma-Aldrich G0660
Test: biochemical
Assay type: biochemical
Settings: IC50 (α-glucosidase inhibitory activity), 37 °C, 30 minutes, pH 6.8
IC50 overview

compound	targetOrTestSystem	parameter	reportedResult
COc1ccc(C=CC(=O)OC2C3C=COC(OC4OC(COC(C)=O)C(OC(C)=O)C(OC(C)=O)C4OC(C)=O)C3C3(COC(C)=O)OC23)cc1OC(C)=O (stereo not drawn)	α-glucosidase (Saccharomyces cerevisiae)	IC50	> 390 µM
COc1ccc(/C=C/C(=O)O[C@H]2[C@@H]3C=CO[C@@H](O[C@@H]4O[C@H](CO)[C@@H](O)[C@H](O)[C@H]4O)[C@@H]3[C@@]3(CO)O[C@@H]23)cc1O [Compound 13, minecoside]	α-glucosidase (Saccharomyces cerevisiae)	IC50	20.8 µM
COc1ccc(CCC(=O)OC2C3C=COC(OC4OC(CO)C(O)C(O)C4O)C3C3(CO)OC23)cc1 (stereo not drawn)	α-glucosidase (Saccharomyces cerevisiae)	IC50	> 390 µM
COc1ccc(CCC(=O)OC2C3C=COC(OC4OC(CO)C(O)C(O)C4O)C3C3(CO)OC23)cc1OC (stereo not drawn)	α-glucosidase (Saccharomyces cerevisiae)	IC50	> 390 µM
COc1ccc(C=CC(=O)OC2C3C=COC(OC4OC5COC(C)(C)OC5C(O)C4O)C3C3(CO)OC23)cc1 (stereo not drawn)	α-glucosidase (Saccharomyces cerevisiae)	IC50	> 390 µM

Next up:
Record CC(=CCO)CCC=C(C)C(=O)OC1C2C=COC(OC3OC(CO)C(O)C(O)C3O)C2C2(CO)OC12 (stereo not drawn) [Compound 10, nemoroside] , field IC50: 0.05 µM

====

Target: α-glucosidase (Saccharomyces cerevisiae, UniProt P53341)
Construct: purchased Sigma-Aldrich G0660
Assay: biochemical
Assay type: biochemical
Conditions: IC50 (α-glucosidase inhibitory activity), 37 °C, 30 minutes, pH 6.8
IC50 overview
Just the number in µM, nothing appended.

Here's what some known entries look like.
compound	reportedResult
CC(=O)OCC1OC(OC2OC=CC3C(OC(=O)C=Cc4ccc(OC(C)=O)cc4)C4OC4(COC(C)=O)C23)C(OC(C)=O)C(OC(C)=O)C1OC(C)=O (stereo not shown) [Compound 12, specioside hexaacetate]	71.6
COc1ccc(C=CC(=O)OC2C3C=COC(OC4OC(COC(C)=O)C(OC(C)=O)C(OC(C)=O)C4OC(C)=O)C3C3(COC(C)=O)OC23)cc1 (stereo not shown) [Compound 7, minecoside pentaacetate]	168

Next up:
Record COc1ccc(C=CC(=O)OC2C3C=COC(OC4OC(CO)C(O)C(O)C4O)C3C3(CO)OC23)cc1OC (stereo not shown) [Compound 2, 6-O-[(E)-3,4-dimethoxycinnamoyl]catalpol] , field IC50: 7.24
